- study.system: T1, hRET.mmh (human, UniProt P07949 29-635, biotinylated in the ELISA of Example 4 (biot-hRET.mmh); not in the SPR of Example 3)
- T1 construct: also called biot-hRET.mmh; soluble monomeric human RET
- method.description: SPR Biacore T200, mAb capture, 37 C
Recorded koff values for a group of binders are listed next.
Output spec: scalar in s⁻¹, unitless text.

State its koff: H4H8062P (antibody, human IgG4, V domains shown, human IgG4 Fc (H4H prefix)) VH: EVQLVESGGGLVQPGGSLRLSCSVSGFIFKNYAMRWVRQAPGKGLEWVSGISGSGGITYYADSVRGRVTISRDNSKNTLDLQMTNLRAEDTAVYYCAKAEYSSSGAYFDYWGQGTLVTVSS VL: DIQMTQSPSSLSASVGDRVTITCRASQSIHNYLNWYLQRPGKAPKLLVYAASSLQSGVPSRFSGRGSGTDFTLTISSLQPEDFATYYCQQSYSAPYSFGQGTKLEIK 0.00181

State its koff: H4H8084P (antibody, human IgG4, V domains shown, human IgG4 Fc (H4H prefix)) VH: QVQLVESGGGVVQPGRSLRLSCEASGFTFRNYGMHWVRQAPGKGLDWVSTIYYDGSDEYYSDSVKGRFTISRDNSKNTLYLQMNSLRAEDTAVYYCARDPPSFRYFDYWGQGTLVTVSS VL: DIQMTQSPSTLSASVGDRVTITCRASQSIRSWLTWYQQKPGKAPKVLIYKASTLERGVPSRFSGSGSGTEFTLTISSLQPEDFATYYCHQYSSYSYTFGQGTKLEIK 0.00165
